The reported numbers originate from paper PMC8453848.

- Measured on: UniProtKB P05177
- Sequence (P05177 1-516): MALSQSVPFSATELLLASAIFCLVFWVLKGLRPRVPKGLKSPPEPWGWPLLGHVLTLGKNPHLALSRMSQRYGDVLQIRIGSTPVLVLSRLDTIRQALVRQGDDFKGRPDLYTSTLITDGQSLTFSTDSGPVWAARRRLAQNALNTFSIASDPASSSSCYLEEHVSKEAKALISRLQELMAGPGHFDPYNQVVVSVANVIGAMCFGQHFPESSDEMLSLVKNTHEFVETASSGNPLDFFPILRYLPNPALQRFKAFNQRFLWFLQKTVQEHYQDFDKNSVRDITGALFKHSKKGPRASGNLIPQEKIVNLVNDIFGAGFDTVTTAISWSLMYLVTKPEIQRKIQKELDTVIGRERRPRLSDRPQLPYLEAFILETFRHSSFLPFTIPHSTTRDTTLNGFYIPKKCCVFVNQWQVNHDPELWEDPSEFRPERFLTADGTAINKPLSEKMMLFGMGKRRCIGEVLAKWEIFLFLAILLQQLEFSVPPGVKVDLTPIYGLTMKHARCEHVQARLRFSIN
- Method notes: CYP1A2 inhibition, phenacetin O-deethylase assay in human liver microsomes
- Assay type: in vitro ADME
- Design: from tissue; host or cells: in vivo, 14 healthy male subjects
- Condition notes: estimated, human liver microsomes; read-out: IC50 for inhibition of CYP1A2
Observation type: IC50

                                        mol  recorded_measurement
0  O=c1nc(OC[C@@H]2COCCO2)cc2n1CCc1cc(C#CC3CC3)ccc1-2              ≥ 100 µM

----------
- Method notes: Test of solubility of GLPG1205 in culture medium for incubations
- Format: physicochemical
- Condition notes: culture medium for incubation; final DMSO percentage 0.4%; read-out: limit of solubility in culture medium for incubations
- Procedure: Solubility and cytotoxicity experiments were performed prior to incubation of GLPG1205 with cells. Test of Solubility Prior to incubation of GLPG1205 with cells, a preliminary test of solubility was performed. Various stock solutions of GLPG1205 in dimethylsulfoxide (DMSO) were prepared. […]
Observation type: solubility at 24 h (µM)

                                        mol  unit_abbrev  recorded_measurement
0  O=c1nc(OC[C@@H]2COCCO2)cc2n1CCc1cc(C#CC3CC3)ccc1-2           µM                   100

----------
- Measured on: CYP1A2 (Homo sapiens, UniProt P05177)
- Method notes: clinical
- Condition notes: male, plasma, oral, AUC0‐t, GLPG1205 100 mg once a day + caffeine, arithmetic mean (CV%)
Listed below: AUC values for each entry.
Observation type: AUC (ng·h/mL)

>>> print(df.to_string())
                          mol  recorded_measurement
0  Cn1c(=O)[nH]c2ncn(C)c2c1=O                  8600
1  Cn1c(=O)c2c(ncn2C)n(C)c1=O                 15700

----------
- Test system: CYP1A2
- Method notes: in vitro
- Condition notes: human, Phenacetin O-deethylase activity, fold induction
Observation type: fold induction at 48 h, 50 µM

>>> df
                                        mol  recorded_measurement
0  O=c1nc(OC[C@@H]2COCCO2)cc2n1CCc1cc(C#CC3CC3)ccc1-2                 0.335

----------
- Tested on: CYP1A2
- Method notes: in vitro
- Condition notes: human, maximum fold induction of CYP1A2 mRNA
Observation type: fold induction at 24 h, 1 µM

In [3]: df
Out[3]:
                                        mol  recorded_measurement
0  O=c1nc(OC[C@@H]2COCCO2)cc2n1CCc1cc(C#CC3CC3)ccc1-2                     6

----------
- Measured on: CYP1A2 (Homo sapiens, UniProt P05177)
- Method notes: CYP1A2 inhibition, phenacetin O-deethylase assay in human liver microsomes
- Assay type: in vitro ADME
- Set-up: from tissue; host or cells: in vivo, 14 healthy male subjects
- Condition notes: human, liver microsomes, pH 7.4, probe phenacetin 40 µM; GLPG1205 100 μM following a 30‐minute preincubation with NADPH
Observation type: inhibition at 7 min, 100 µM

In [3]: df
Out[3]:
                                        mol             observation_type  recorded_measurement
0  O=c1nc(OC[C@@H]2COCCO2)cc2n1CCc1cc(C#CC3CC3)ccc1-2  inhibition at 7 min, 100 µM                 52.9%

----------
- Measured on: CYP2C19 (Homo sapiens, UniProt P33261)
- Sequence (P33261 whole entry): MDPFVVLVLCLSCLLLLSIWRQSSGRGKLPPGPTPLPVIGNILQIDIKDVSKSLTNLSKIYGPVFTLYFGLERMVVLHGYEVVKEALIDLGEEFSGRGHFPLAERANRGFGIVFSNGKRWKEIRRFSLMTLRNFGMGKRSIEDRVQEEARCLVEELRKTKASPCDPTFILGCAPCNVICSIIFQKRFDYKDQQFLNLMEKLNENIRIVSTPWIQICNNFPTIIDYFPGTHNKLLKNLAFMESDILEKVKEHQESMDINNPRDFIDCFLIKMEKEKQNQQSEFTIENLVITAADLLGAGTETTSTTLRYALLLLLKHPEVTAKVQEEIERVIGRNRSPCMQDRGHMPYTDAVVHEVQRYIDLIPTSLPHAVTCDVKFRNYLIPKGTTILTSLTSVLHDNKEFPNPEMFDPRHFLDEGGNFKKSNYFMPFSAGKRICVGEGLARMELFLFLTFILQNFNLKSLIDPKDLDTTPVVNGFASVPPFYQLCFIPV
- Method notes: CYP2C19 inhibition, S-mephenytoin 4'-hydroxylase assay in human liver microsomes
- Type: in vitro ADME
- Set-up: from tissue; host or cells: in vivo, 14 healthy male subjects
- Condition notes: human, liver microsomes, pH 7.4, probe S-mephenytoin 60 µM; GLPG1205 50‐100 μM without preincubation, S‐mephenytoin 60 μM
- Text: Inhibition of the biotransformation of CYP‐specific substrates by GLPG1205 was studied using human liver microsomes. […] Further details of the assays used for each CYP substrate are reported in the Supplemental Methods. Metabolites of the CYP‐specific substrates (acetaminophen for CYP1A2, hydroxytolbutamide for CYP2C9, hydroxymephenytoin for CYP2C19) were quantified using LC‐MS/MS. […]
Observation type: inhibition at 20 min

In [3]: df
Out[3]:
                                   compound  recorded_measurement
0  O=c1nc(OC[C@@H]2COCCO2)cc2n1CCc1cc(C#CC3CC3)ccc1-2 [GLPG1205]         44.2 to 49.3%

----------
- Measured on: CYP1A2 (Homo sapiens, UniProt P05177)
- Sequence (P05177 1-516): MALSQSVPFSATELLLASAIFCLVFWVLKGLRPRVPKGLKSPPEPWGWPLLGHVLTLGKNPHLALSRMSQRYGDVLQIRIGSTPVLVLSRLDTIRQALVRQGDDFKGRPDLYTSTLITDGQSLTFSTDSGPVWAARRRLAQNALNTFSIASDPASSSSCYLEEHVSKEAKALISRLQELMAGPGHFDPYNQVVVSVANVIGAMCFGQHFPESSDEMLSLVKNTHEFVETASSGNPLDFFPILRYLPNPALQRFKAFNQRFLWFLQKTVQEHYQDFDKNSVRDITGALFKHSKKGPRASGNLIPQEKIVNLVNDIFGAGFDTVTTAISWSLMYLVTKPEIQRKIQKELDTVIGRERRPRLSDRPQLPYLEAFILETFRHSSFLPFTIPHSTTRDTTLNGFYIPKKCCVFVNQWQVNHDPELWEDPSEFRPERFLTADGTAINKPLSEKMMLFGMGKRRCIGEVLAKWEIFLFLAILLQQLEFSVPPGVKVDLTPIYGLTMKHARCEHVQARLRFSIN
- Method notes: clinical
- Condition notes: male, plasma, oral, Cmax, GLPG1205 100 mg once a day + caffeine 100 mg day 13, n = 14, arithmetic mean (CV%)
Cmax: recorded values
Observation type: Cmax (ng/mL)

>>> df
                          mol                            measured_on  recorded_measurement
0  Cn1c(=O)[nH]c2ncn(C)c2c1=O  CYP1A2 (Homo sapiens, UniProt P05177)                   634
1  Cn1c(=O)c2c(ncn2C)n(C)c1=O  CYP1A2 (Homo sapiens, UniProt P05177)                  2160

----------
- Method notes: Phase 1 drug-drug interaction study: plasma PK of GLPG1205
- Format: in vivo, human
- Condition notes: male, human, plasma, oral; day 13, GLPG1205 100 mg once a day, n = 14, median (min‐max)
Observation type: tmax (h)

In [3]: df
Out[3]:
                                        mol  observation_type  recorded_measurement
0  O=c1nc(OC[C@@H]2COCCO2)cc2n1CCc1cc(C#CC3CC3)ccc1-2              tmax                     2

----------
- Method notes: Phase 1 drug-drug interaction study: plasma PK of GLPG1205
- Type: in vivo, human
- Condition notes: male, human, plasma, oral, 100 mg, day 13, GLPG1205 100 mg once a day, n = 14, arithmetic mean (CV%); read-out: AUC0‐t
Observation type: AUC (µg·h/mL)

In [3]: df
Out[3]:
                                   compound  recorded_measurement
0  O=c1nc(OC[C@@H]2COCCO2)cc2n1CCc1cc(C#CC3CC3)ccc1-2 [GLPG1205]                   395
